Overview of recorded phosphorylation enrichment for various sequences
subject_of_test: FGFR1 (UniProt P11362)
Sequence (P11362 whole entry, looked up): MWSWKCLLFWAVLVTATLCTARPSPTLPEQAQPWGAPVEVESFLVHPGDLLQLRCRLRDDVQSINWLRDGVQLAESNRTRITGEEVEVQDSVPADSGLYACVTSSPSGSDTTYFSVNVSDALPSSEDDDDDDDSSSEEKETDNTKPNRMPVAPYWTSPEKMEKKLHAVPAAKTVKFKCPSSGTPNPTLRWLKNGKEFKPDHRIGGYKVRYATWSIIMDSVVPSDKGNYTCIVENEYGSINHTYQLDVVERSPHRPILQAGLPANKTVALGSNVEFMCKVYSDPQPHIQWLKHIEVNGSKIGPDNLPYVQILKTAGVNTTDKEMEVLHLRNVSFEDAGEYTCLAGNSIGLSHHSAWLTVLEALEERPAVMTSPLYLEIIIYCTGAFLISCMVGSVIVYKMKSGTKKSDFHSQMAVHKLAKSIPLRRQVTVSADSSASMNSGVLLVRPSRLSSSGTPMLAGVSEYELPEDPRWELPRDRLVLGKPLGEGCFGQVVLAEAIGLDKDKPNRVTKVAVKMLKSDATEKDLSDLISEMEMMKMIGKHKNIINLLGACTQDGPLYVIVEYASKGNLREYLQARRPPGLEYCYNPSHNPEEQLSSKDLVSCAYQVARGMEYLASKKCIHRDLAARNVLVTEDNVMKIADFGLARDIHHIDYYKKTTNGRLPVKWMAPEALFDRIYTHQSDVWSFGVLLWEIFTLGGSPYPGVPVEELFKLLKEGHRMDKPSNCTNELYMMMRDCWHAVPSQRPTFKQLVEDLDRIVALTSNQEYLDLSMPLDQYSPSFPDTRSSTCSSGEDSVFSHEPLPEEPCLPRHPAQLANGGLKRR
assay_name: phosphorylation enrichment, bacterial display (enrichment ratio); higher = better substrate or ligand; peptides without Tyr show the background;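 also: 11-residue human phosphosite peptides and single-mutation variants displayed on the E. coli surface, counted by deep sequencing, each peptide's frequency after selection divided by its frequency in the unselected input library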;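 also: frequency after pTyr selection over input frequency; kinase dosed for 20-30% of maximal phosphorylation in three min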

residue_string	phosphorylation enrichment
RREWFYEVIIA [BACE1_Y260_V265A_YF]	0.784
SGETEYNPTEA [NBEAL2_Y2748]	0.77
QRTMKYTTATG [MCCC1_Y41]	0.692
VIEYSYTSADG [DHCR7_Y382_C380Y]	0.711
VTRAKYFIRDE [GNAS_Y339]	0.45
SVGGLYRDMGA [CBX8_Y321_G317V]	0.541
GFAGKYIAMVM [CYP19A1_Y441_C437Y_YF]	0.454
HHLSTYTKMLF [CHST8_Y251_R247H]	0.714
GGGCGYNRSSG [FUS_Y232_G230C]	0.448
VVEVTYDDVPI [FLNB_Y1308]	0.742
AVVEPYNSLLT [TUBA1A_Y185_I188L]	0.399
KTDKKYLMIEE [BAG3_Y451]	0.463
QYPDVYAREEV [CRX_Y67]	0.959
FNNPAYFVLEG [INPPL1_Y986_YF]	7.65
LAEMNYVHRDL [EPHB1_Y740]	0.412
FQASFYRRGDR [LTK_Y677_R673Q_YF]	0.532
PYRSIYFSSPK [MPG_Y75]	0.778
DKANRYFSPNF [PTEN_Y336]	0.397
CDSSGYWTPEE [PAPPA2_Y908]	0.579
SVVVPYEPPEF [TP53_Y220_V225F]	0.49
RRIHSYRGHVW [VHL_Y112_L116V]	0.899
RQRTAYFSLNT [CDH1_Y68_D72N]	0.586
SLIDMYSEVLA [OPA1_Y268_D273A]	1.12
GPGLVYRVANK [FLNB_Y1833_G1834R]	0.515
DTKPAYQNLRQ [BOD1_Y82]	0.434
FPRAWCRRSIA [KIAA1109_Y4272_Y4272C]	0.48
TLSGIYQYSIA [FOXL2_Y81_I84S]	0.952
TLERHYKELQA [SPTBN2_Y834_E835K]	0.449
KPGLIYNKVNP [SPRED3_Y72_V71I]	0.373
